- TARGET_SYSTEM: T1, SARS-CoV-2 Beta Variant RBD (SARS-CoV-2 Beta variant)
- T1 construct: domain: RBD; coated on ELISA plates
- ASSAY_SUMMARY: ELISA, RBD coated
PROPERTY_LABEL: EC50 (nM)
Give bare numbers, in nM.

Item under review: PP1108 MBP-5HVZ-PAPA-RN-23-H6 (VHH, Form: Dimer) VHH: QVQLVESGGGLVQPGGSLRLSCAASGGEKSISAAHWYRQAPGKEREFVAAITAASTTSYADSVKGRFTISRDNAKNTVYLQMNSLKPEDTAVYYCTAVLYDSYDYWGQGTQVTVSS . Reported EC50?
121

Then this binder:
Form field: reported EC50 of PP1104 MBP-5HVZ-PAPA-RN-19-H6 (VHH, Form: Dimer) VHH: QVQLVESGGGLVQPGGSLRLSCAASGIDDSIGAMHWFRQAPGKGREFVAALSGTGTTSYADSVKGRFTISRDNAKNTVYLQMNSLKPEDTAVYYCAAAFPAGGDYWGQGTQVTVSS
44.9
